# testSystem: Escherichia coli LpxH (UDP-2,3-diacylglucosamine hydrolase) (Escherichia coli (strain K12), UniProt P43341)
# Sequence (P43341 whole entry): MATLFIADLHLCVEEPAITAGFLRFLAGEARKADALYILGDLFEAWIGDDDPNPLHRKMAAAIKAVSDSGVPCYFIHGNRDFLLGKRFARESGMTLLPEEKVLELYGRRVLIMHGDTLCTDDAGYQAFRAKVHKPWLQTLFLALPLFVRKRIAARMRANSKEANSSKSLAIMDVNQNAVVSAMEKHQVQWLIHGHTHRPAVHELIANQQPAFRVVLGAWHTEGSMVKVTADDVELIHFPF
# assayText: 50% Inhibitory Concentration (IC50) to LpxH, UMP/CMP-Glo Glycosyltransferase Assay kit
# Procedure: Example 121: 50% Inhibitory Concentration (IC50) to UDP-2,3-diacylglucosamine hydrolase (LpxH) The inhibitory potency of molecules to UDP-2,3-diacylglucosamine hydrolase (LpxH) was determined using the UMP/CMP-Glo™ Glycosyltransferase Assay kit. […] The assay kit could quantify the UMP production by convert the UMP to ATP and generate light in a luciferase reaction. The compound's effect on the LpxH activity is detected by measuring the light using a luminometer (Envision).
recordedMetric: pIC50
Numbers only, as −log10 of the molar value.

{"compound": "NC1CC(=O)N(c2ccc(S(=O)(=O)N3CCN(c4cc(C(F)(F)c5ccccc5)nc(Cl)n4)CC3)cc2)C1 (stereo not shown) [Example 77]", "readoutNumber": 8.15}
{"compound": "CN1CCN(CC2CC(=O)N(c3ccc(S(=O)(=O)N4CCN(c5cc(C(F)(F)F)cc(Cl)n5)CC4)cc3)C2)CC1 (stereo not shown) [Example 36]", "readoutNumber": 7.57}
{"compound": "NC1(C2CN(CC3CC(=O)N(c4ccc(S(=O)(=O)N5CCN(c6cc(C(F)(F)F)cc(Cl)n6)CC5)cc4)C3)C2)CC1 (stereo not shown) [Example 39]", "readoutNumber": 7.88}
{"compound": "CNCCN1CCC[C@H]2OC(=O)N(c3ccc(S(=O)(=O)N4CCN(c5cc(C(F)(F)F)cc(Cl)n5)CC4)cc3)[C@H]2C1 [Example 26]", "readoutNumber": 7.49}
{"compound": "NC1CC(=O)N(c2ccc(S(=O)(=O)N3CCN(c4cc(C(F)(F)C5=CCOCC5)cc(Cl)n4)CC3)cc2)C1 (stereo not shown) [Example 98]", "readoutNumber": 7.32}

Alright, here's another compound for you.
Name the recorded pIC50 for CNC1CC(=O)N(c2ccc(S(=O)(=O)N3CCN(c4cc(C(F)(F)F)cc(Cl)n4)CC3)cc2)C1 (stereo not shown) [Example 44] .
6.71
